MEASURED ENDPOINT: melting point

These recorded examples may help you get a feel for the data.
> print(dat)
                                 mol.smiles      readout.value
1  O=[N+]([O-])c1c(Nc2ccc(O)cc2)ncnc1-c1ccc(C(F)(F)F)cc1F    169 to 171.5 °C
2  COc1ccc(Nc2ncnc(-c3ccc(C(F)(F)F)cc3F)c2[N+](=O)[O-])cc1  155.6 to 155.8 °C
3  COc1ccc(Nc2ncnc(-c3ccc(C(F)(F)F)cc3F)c2N)cc1  212.1 to 213.2 °C

Here's the next entry for you.
# input compound: Nc1c(Nc2ccc(O)cc2)ncnc1-c1ccc(C(F)(F)F)cc1F ; wanted: its melting point
194.2 to 195.7 °C

###

- ASSAY SYSTEM: wild-type nAChR α7 receptors (Homo sapiens)
- Sequence (P36544 23-502): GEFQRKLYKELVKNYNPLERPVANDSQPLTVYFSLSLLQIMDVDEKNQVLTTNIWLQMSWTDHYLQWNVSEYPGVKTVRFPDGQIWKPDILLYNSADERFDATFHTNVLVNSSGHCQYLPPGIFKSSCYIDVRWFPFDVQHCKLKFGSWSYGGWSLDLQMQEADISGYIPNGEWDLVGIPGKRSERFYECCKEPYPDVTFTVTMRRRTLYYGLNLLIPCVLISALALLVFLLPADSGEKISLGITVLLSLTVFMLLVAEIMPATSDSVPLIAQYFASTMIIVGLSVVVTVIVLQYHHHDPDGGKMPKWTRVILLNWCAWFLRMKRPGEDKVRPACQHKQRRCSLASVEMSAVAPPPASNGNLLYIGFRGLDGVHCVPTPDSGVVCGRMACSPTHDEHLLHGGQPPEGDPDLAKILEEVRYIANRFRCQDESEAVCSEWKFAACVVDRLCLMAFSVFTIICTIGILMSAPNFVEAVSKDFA
- PROTOCOL DESCRIPTION: Positive modulation of nAChR α7 receptors expressed in Xenopus laevis oocytes, two-electrode voltage clamp
- RUN PARAMETERS: positive modulation of current induced by 100 μM acetylcholine; oocytes clamped at −60 mV; test compound 0.01-31.6 μM applied 30 s before and during acetylcholine
Criterion: EC50 strictly less than 7 µM. Met: MET. Not met: NOT MET.

> print(dat)
                                 mol.smiles  group.label
1  O=[N+]([O-])c1c(Nc2ccc(O)cc2)ncnc1-c1ccc(C(F)(F)F)cc1F      NOT MET

hey, is EC50 for Nc1c(Nc2ccc3c(c2)OCO3)ncnc1-c1ccc(C(F)(F)F)cc1F lower than 7 µM or not?
NOT MET

Further, for COc1ccc(Nc2nc(C)nc(-c3ccc(C(F)(F)F)cc3F)c2N)cc1 ?
MET

Further, for Cc1nc(Nc2ccc3ccccc3c2)c(N)c(-c2ccc(C(F)(F)F)cc2F)n1 ?
MET

Further, for Cc1nc(Oc2ccc3c(c2)OCO3)c(N)c(-c2ccc(C(F)(F)F)cc2F)n1 ?
MET

Further, for COc1ccc(Oc2nc(C)nc(-c3ccc(C(F)(F)F)cc3F)c2N)cc1 ?
MET

Further, for COc1cccc(Nc2nc(C)nc(-c3ccc(C(F)(F)F)cc3F)c2N)c1 ?
MET

###

- ASSAY SYSTEM: wild-type nAChR α7 receptors (Homo sapiens)
- PROTOCOL DESCRIPTION: Positive modulation of nAChR α7 receptors expressed in Xenopus laevis oocytes, two-electrode voltage clamp
- RUN PARAMETERS: positive modulation of current induced by 100 μM acetylcholine; oocytes clamped at −60 mV; test compound 0.01-31.6 μM applied 30 s before and during acetylcholine
Let's look at some compounds and their measured pEC50.
Value format note: pEC50 is -log10 of concentration (mol/L); just state the number.

> print(dat)
                                 mol.smiles  readout.value
1  O=[N+]([O-])c1c(Nc2ccc3[nH]ccc3c2)ncnc1-c1ccc(C(F)(F)F)cc1F           5.16
2  COc1ccc(Nc2nc(C)nc(-c3ccc(C(F)(F)F)cc3F)c2N)c(OC)c1           5.96
3  COc1ccc(Nc2ncnc(-c3ccc(C(F)(F)F)cc3F)c2N)cc1           5.64

Here's the next entry for you.
# input compound: CSc1cccc(Nc2nc(C)nc(-c3ccc(C(F)(F)F)cc3F)c2N)c1 ; wanted: its pEC50
5.01
